tested on: NCI-H226; test: NCI tumour cell line growth inhibition, 48 h
Activity calls are given as the source filed them. No stated cut-off is given here; in the data, active = GI50 up to about 1.1 µM and inactive = higher.
The reply should name one outcome from 1 (active), -1 (inactive)

Some solved entries appear below for comparison.
- MOLECULE: "COc1cc(C2SCC(=O)N2c2ccc(Oc3ccc(Cl)cc3)c(Cl)c2)cc(OC)c1OC (stereo not given)"
  DISCRETE_LABEL: -1
- MOLECULE: "Nc1ccc(-c2nc3cc(F)ccc3s2)cc1Cl"
  DISCRETE_LABEL: 1
- MOLECULE: "O=C(Nc1ccccc1)c1nn(-c2cc(S(=O)(=O)O)c([N+](=O)[O-])cc2Cl)[n+](-c2cc(S(=O)(=O)[O-])c([N+](=O)[O-])cc2Cl)n1"
  DISCRETE_LABEL: -1

Turning now to a further molecule:
Query: recorded result category for COC(=O)/C=C\C(C#N)(C#N)/N=C/c1cccc(OC)c1 in this test
-1

###

system: MDA-N; assay: NCI tumour cell line growth inhibition, 48 h
Activity calls are given as the source filed them. Rule as the data show it: active = GI50 up to about 1.1 µM and inactive = higher.
The following molecules are shown together with reported GI50 values.

Reference set (5 entries):
- MOLECULE: "CC(=O)C(C(=O)c1ccc(C)cc1)[C@@H]1OC(C)(C)O[C@@H]1[C@H]1COC(C)(C)O1 (stereo partly drawn)"
  TARGET_DESC: "MDA-N"
  GI50: "7.21 µM (inactive)"
- MOLECULE: "CC(O)C1(O)C(O)CC(OC2c3cc4c(c(O)c3[C@@H]3C[C@@]2(C)OC32C=c3cc[nH]c3=N2)C(=O)c2cccc(O)c2C4=O)OC1C (stereo partly drawn)"
  TARGET_DESC: "MDA-N"
  GI50: "1.81 µM (inactive)"
- MOLECULE: "CCCCOC(=O)C1CN2C(=NC1(C(F)(F)F)C(F)(F)F)Sc1ccccc12 (stereo not drawn)"
  TARGET_DESC: "MDA-N"
  GI50: "60.3 µM (inactive)"
- MOLECULE: "Clc1ccc(C2ON=C(c3ccccc3)N2C23CC4CC(CC(C4)C2)C3)cc1Cl (stereo not drawn)"
  TARGET_DESC: "MDA-N"
  GI50: "> 10 µM (inactive)"
- MOLECULE: "CCC(C)(C)C1CCC2c3c([nH]c4ccccc34)C3C(=O)N(c4ccc(OC)cc4)C(=O)C3C2C1 (stereo not drawn)"
  TARGET_DESC: "MDA-N"
  GI50: "18.7 µM (inactive)"

Requested field: GI50. Item: CCOC(=O)NC(Nc1ccc(S(=O)(=O)Nc2nc(C)cc(C)n2)cc1)(C(=O)OCC)C(F)(F)F (stereo not drawn)
> 100 µM (inactive)

Requested field: GI50. Item: CSc1ccccc1P(CCP(c1ccccc1SC)c1ccccc1SC)c1ccccc1SC
50.5 µM (inactive)

Requested field: GI50. Item: CC1Cc2cc(O)c(O)cc2-c2cc(O)c(O)cc2CC1C (stereo not drawn)
3.07 µM (inactive)

Requested field: GI50. Item: COc1ccccc1NC(=S)Nc1cc(C)ccn1
> 100 µM (inactive)

Requested field: GI50. Item: CC1=C2C(=O)[C@H]3[C@@H](CC=C4C[C@@H](O)CC[C@@]43C)[C@@H]2CC[C@]12O[C@@H]1C[C@H](C)CN[C@H]1[C@H]2C [JERVINE]
> 100 µM (inactive)

Requested field: GI50. Item: Nc1ccc(Nc2cc(O)nc(O)n2)cc1
> 100 µM (inactive)

Requested field: GI50. Item: O=C(O)CN(CC(=O)O)c1ccccc1
97.5 µM (inactive)

Requested field: GI50. Item: CCOC(=O)c1c(CN2CCNCC2)nc2ccc(Cl)cc2c1-c1ccccc1
5.78 µM (inactive)
